Every entry's value here was drawn from patent US20070149508A1.

Listed below: IC50 values for each entry.
TARGET_OF_ASSAY: Abl (T315I) (Homo sapiens, UniProt P00519, T315I)
Construct: purchased Upstate
ASSAY_TEXT: Abl (T315I) Kinase Assay (KinaseGlo luminescent detection of residual ATP)
Assay type: biochemical
CONDITION_DESCRIPTION: Abl (T315I) IC50 (nM), Abl (T315I) (Upstate, 17 ng/well), Abltide 100 uM, ATP 500 nM, 60 minutes at 37° C.
Structures can show the parent of a compound that is named as a salt.

Below: 5 molecules and their reported IC50.
[[record]]
molecule = "O=C(Nc1cccc(/C=C/c2cnc(Nc3cccnc3)nc2)c1)c1cccc(C(F)(F)F)c1"
measured_parameter = "IC50"
experimental_result = "> 10000 nM"

[[record]]
molecule = "Nc1nc2cc(/C=C/c3cnc(Nc4ccc(S(=O)(=O)C5CCNCC5)cc4)nc3)ccc2s1 [Hydrochloride]"
measured_parameter = "IC50"
experimental_result = "416 nM"

[[record]]
molecule = "O=S(=O)(NCCO)c1ccc(Nc2ncc(/C=C/c3ccccc3)cn2)cc1N1CCNCC1 [trifluoroacetic acid salt]"
measured_parameter = "IC50"
experimental_result = "7340 nM"

[[record]]
molecule = "NC1Cc2ccc(/C=C/c3cnc(Nc4ccc(S(=O)(=O)N5CCC(CO)CC5)cc4)nc3)cc2C1 (centres unmarked)"
measured_parameter = "IC50"
experimental_result = "2790 nM"

[[record]]
molecule = "CN1CCN(S(=O)(=O)c2cccc(Nc3ncc(/C=C/c4cccc5[nH]ccc45)cn3)c2)CC1"
measured_parameter = "IC50"
experimental_result = "~10000 nM"


Query string: Query (molecule): O=S(=O)(c1ccc(Nc2ncc(/C=C/c3ccc(-c4ncc[nH]4)cc3)cn2)cc1)C1CCNCC1 [hydrochloride] ; field requested: IC50
Result string: 1290 nM

Query string: Query (molecule): `O=S(=O)(NCCN1CCCC1)c1ccc(Nc2ncc(/C=C/c3cc(O)ccc3F)cn2)cc1` ; field requested: IC50
Result string: 240 nM

Query string: Query (molecule): `O=S(=O)(NCCN1CCCC1)c1ccc(Nc2ncc(/C=C/c3cccc(O)c3)cn2)cc1` ; field requested: IC50
Result string: 141 nM

Query string: Query (molecule): O=S(=O)(NC1CCNCC1)c1ccc(Nc2ncc(/C=C/c3cccc4[nH]ncc34)cn2)cc1 [hydrochloride] ; field requested: IC50
Result string: 176 nM

Query string: Query (molecule): `O=S(=O)(c1ccc(Nc2ncc(/C=C/c3cc(Cl)cc4[nH]nnc34)cn2)cc1)N1CCNCC1` ; field requested: IC50
Result string: 21 nM

* * *

TARGET_OF_ASSAY: Abl (T315I) (Homo sapiens, UniProt P00519, T315I)
Construct: purchased Upstate
ASSAY_TEXT: Abl (T315I) Kinase Assay (KinaseGlo luminescent detection of residual ATP)
Type: biochemical
CONDITION_DESCRIPTION: Abl (T315I) IC50 (nM), Abl (T315I) (Upstate, 17 ng/well), Abltide 100 uM, ATP 500 nM, 60 minutes at 37° C.
Description: The assay was performed similarly to the Abl kinase assay. Abl (T315I) (Upstate, 17 ng/well); Abltide substrate (100 uM) and ATP (500 nM) comprised the reaction mixture. Compound was similarly diluted, and the reaction plate was incubated for 60 minutes at 37° C.
Where a name gives a salt, the structure may show the parent alone.
MEASURED_PARAMETER: IC50 (nM)
Write down the numeric answer in nM and omit the unit.

Below: 7 compounds and their reported IC50.
[[record]]
compound = "O=S(=O)(c1ccc(Nc2ncc(/C=C/c3ccc(O)c(O)c3)cn2)cc1)C1CCNCC1 [Hydrochloride]"
target_of_assay = "Abl (T315I) (Homo sapiens, UniProt P00519, T315I)"
measured_parameter = "IC50"
experimental_result = 40

[[record]]
compound = "O=S(=O)(c1ccc(Nc2ccc(/C=C/c3cccc(O)c3)cn2)cc1)C1CCNCC1 [hydrochloride]"
target_of_assay = "Abl (T315I) (Homo sapiens, UniProt P00519, T315I)"
measured_parameter = "IC50"
experimental_result = 192

[[record]]
compound = "O=S(=O)(NCCN1CCCC1)c1ccc(Nc2ncc(CCc3cc(O)ccc3Cl)cn2)cc1 [hydrochloride]"
target_of_assay = "Abl (T315I) (Homo sapiens, UniProt P00519, T315I)"
measured_parameter = "IC50"
experimental_result = 805

[[record]]
compound = "O=S(=O)(c1ccc(Nc2ncc(/C=C/c3ccc(F)c(O)c3)cn2)cc1)C1CCNCC1"
target_of_assay = "Abl (T315I) (Homo sapiens, UniProt P00519, T315I)"
measured_parameter = "IC50"
experimental_result = 213

[[record]]
compound = "O=S(=O)(CCCN1CCCC1)c1ccc(Nc2ncc(/C=C/c3cccc4[nH]ccc34)cn2)cc1"
target_of_assay = "Abl (T315I) (Homo sapiens, UniProt P00519, T315I)"
measured_parameter = "IC50"
experimental_result = 386

[[record]]
compound = "O=S(=O)(c1ccc(Nc2ncc(/C=C/c3ccnc4[nH]ccc34)cn2)cc1)C1CCNCC1"
target_of_assay = "Abl (T315I) (Homo sapiens, UniProt P00519, T315I)"
measured_parameter = "IC50"
experimental_result = 163

[[record]]
compound = "C(=C\\c1cccc2[nH]ccc12)/c1cnc(Nc2ccc(OC3CCNCC3)cc2)nc1 [trifluoroacetic acid salt]"
target_of_assay = "Abl (T315I) (Homo sapiens, UniProt P00519, T315I)"
measured_parameter = "IC50"
experimental_result = 820


Next item in the queue.
Query string: Query (compound): NS(=O)(=O)c1cccc(/C=C/c2cnc(Nc3ccc(S(=O)(=O)C4CCNCC4)cc3)nc2)c1 [Hydrochloride] ; field requested: IC50
Result string: 2070

* * *

TARGET_OF_ASSAY: Abl (T315I) (Homo sapiens, UniProt P00519, T315I)
Construct: purchased Upstate
ASSAY_TEXT: Abl (T315I) Kinase Assay (KinaseGlo luminescent detection of residual ATP)
Format: biochemical
CONDITION_DESCRIPTION: Abl (T315I) IC50 (nM), Abl (T315I) (Upstate, 17 ng/well), Abltide 100 uM, ATP 500 nM, 60 minutes at 37° C.
Structures can show the parent of a compound that is named as a salt.
MEASURED_PARAMETER: IC50 (nM)
Write down the numeric answer in nM and omit the unit.

Below: 10 molecules and their reported IC50.
[[record]]
molecule = "O=C1Cc2c(/C=C/c3cnc(Nc4ccc(S(=O)(=O)C5CCNCC5)cc4)nc3)cccc2N1"
experimental_result = 2270

[[record]]
molecule = "O=C(Nc1cn2cc(/C=C/c3cnc(Nc4ccc(S(=O)(=O)C5CCNCC5)cc4)nc3)ccc2n1)C(F)(F)F [trifluoroacetic acid salt]"
experimental_result = 475

[[record]]
molecule = "O=S(=O)(c1ccc(Nc2ncc(/C=C/c3ccc(O)cc3)cn2)cc1)C1CCNCC1"
experimental_result = 32

[[record]]
molecule = "NS(=O)(=O)c1ccc(/C=C/c2cnc(Nc3ccc(S(=O)(=O)N4CCCNCC4)cc3)nc2)cc1"
experimental_result = 298

[[record]]
molecule = "Cc1nc(Nc2ccc(S(=O)(=O)NCCN3CCCC3)cc2)ncc1/C=C/c1cccc(O)c1"
experimental_result = 436

[[record]]
molecule = "O=S(=O)(NC1CCNCC1)c1ccc(Nc2ncc(/C=C/c3cccc4[nH]ccc34)cn2)cc1"
experimental_result = 282

[[record]]
molecule = "O=S(=O)(c1ccc(Nc2ncc(/C=C/c3ccc4[nH]ccc4c3)cn2)cc1)C1CCNCC1"
experimental_result = 138

[[record]]
molecule = "Nc1cc(C(F)(F)F)cc(/C=C/c2cnc(Nc3ccc(S(=O)(=O)C4CCNCC4)cc3)nc2)c1N"
experimental_result = 522

[[record]]
molecule = "Nc1nc2ccc(/C=C/c3cnc(Nc4ccc(S(=O)(=O)NC5CCCNC5)cc4)nc3)cc2s1 (centres unmarked) [Hydrochloride]"
experimental_result = 898

[[record]]
molecule = "O=S(=O)(c1ccc(Nc2ncc(/C=C/c3cccc4[nH]ccc34)cn2)cc1N1CCNCC1)N1CCNCC1 [trifluoroacetic acid salt]"
experimental_result = 885


Query string: Query (molecule): Nc1nc2ccc(/C=C/c3cnc(Nc4ccc(S(=O)(=O)CCCN5CCCC5)cc4)nc3)cc2s1 [trifluoroacetic acid salt] ; field requested: IC50
Result string: 173

Query string: Query (molecule): `Nc1nc2cc(C(F)(F)F)cc(/C=C/c3cnc(Nc4ccc(S(=O)(=O)C5CCNCC5)cc4)nc3)c2[nH]1` ; field requested: IC50
Result string: 254

Query string: Query (molecule): Nc1nc2ccc(/C=C/c3cnc(Nc4ccc(S(=O)(=O)N5CCCC(O)C5)cc4)nc3)cc2s1 (centres unmarked) ; field requested: IC50
Result string: 214

Query string: Query (molecule): `C=Cc1cnc(Nc2ccc(S(=O)(=O)C3CCN(C)CC3)cc2)nc1` ; field requested: IC50
Result string: 1570

Query string: Query (molecule): O=S(=O)(c1ccc(Nc2ncc(/C=C/c3cccc4[nH]ccc34)cn2)cc1)C1CCN(CCO)CC1 [Hydrochloride] ; field requested: IC50
Result string: 202
